These measurements were taken from the kinase profiling compilation of Christmann-Franck et al. (2016).

Measured kinase still bound, per cent of control, listed per entry for reference.
# assay target: RPS6KA6 KD2 (human) (UniProt Q9UK32)
# Sequence (Q9UK32 whole entry, looked up): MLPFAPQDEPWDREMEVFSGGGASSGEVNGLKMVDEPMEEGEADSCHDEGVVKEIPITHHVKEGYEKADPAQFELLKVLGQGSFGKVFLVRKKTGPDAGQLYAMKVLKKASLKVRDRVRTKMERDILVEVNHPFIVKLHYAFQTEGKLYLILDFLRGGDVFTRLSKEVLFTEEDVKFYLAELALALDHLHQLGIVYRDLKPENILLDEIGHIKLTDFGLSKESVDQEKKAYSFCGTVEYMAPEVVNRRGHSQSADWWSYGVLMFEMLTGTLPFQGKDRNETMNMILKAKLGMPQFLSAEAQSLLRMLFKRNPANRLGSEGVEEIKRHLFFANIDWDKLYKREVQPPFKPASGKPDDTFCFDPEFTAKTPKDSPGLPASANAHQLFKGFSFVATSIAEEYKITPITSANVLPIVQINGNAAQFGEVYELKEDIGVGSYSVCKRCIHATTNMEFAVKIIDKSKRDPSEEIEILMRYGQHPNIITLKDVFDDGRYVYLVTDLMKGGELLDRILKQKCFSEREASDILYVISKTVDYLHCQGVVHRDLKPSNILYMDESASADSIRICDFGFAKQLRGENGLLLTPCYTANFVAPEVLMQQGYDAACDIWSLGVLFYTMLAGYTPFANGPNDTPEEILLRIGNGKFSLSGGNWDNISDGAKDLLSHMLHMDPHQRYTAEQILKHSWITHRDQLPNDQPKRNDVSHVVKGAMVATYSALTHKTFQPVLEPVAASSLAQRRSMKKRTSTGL
# measurement description: KINOMEscan competition binding
# measurement setup: compound 1.0 µM

# chem smiles, result unit, kinase still bound, per cent of control
measured = [
    ("CN(C)C/C=C/C(=O)Nc1cccc(C(=O)Nc2ccc(Nc3nccc(-c4c(-c5ccccc5)nn5ccccc45)n3)cc2)c1", "%", 13),
    ("Cc1cc(NC(=O)c2cccc(NC(=O)/C=C/CN(C)C)c2)ccc1Nc1nccc(-c2cccnc2)n1", "%", 76),
    ("CN(C)C/C=C/C(=O)Nc1cccc(C(=O)Nc2ccc(Nc3nccc(/C(C#N)=C4\\Nc5ccccc5S4)n3)cc2)c1", "%", 100),
    ("CN(C)C/C=C/C(=O)Nc1cccc(C(=O)Nc2ccc(Nc3nccc(-c4cccnc4)n3)cc2)c1", "%", 100),
]
